# Test Target: P2Y12 receptor (Homo sapiens)
# Protocol Summary: [3H]2MeSADP radioligand binding at the P2Y12 receptor (U2OS membranes)
# Parameters: expressed in transfected cells; host or cells: U2OS cells (membrane preparation)
A collection of compounds and their measured Ki

{"Compound": "O=C(C=Cc1ccc(O)c2c1C(C(=O)OC(Cc1ccc(O)c(O)c1)C(=O)O)C(c1ccc(O)c(O)c1)O2)OC(Cc1ccc(O)c(O)c1)C(=O)O (centres unmarked) [SAB, salvianolic acid B]", "Test Target": "P2Y12 receptor (Homo sapiens)", "Ki, µM": 36.4}
{"Compound": "O=C(/C=C/c1ccc(O)c(O)c1/C=C/c1ccc(O)c(O)c1)O[C@H](Cc1ccc(O)c(O)c1)C(=O)O [SAA, salvianolic acid A]", "Test Target": "P2Y12 receptor (Homo sapiens)", "Ki, µM": 20.3}

----------
# Test Target: P2Y1 receptor (Homo sapiens, UniProt P47900)
# Sequence (P47900 whole entry): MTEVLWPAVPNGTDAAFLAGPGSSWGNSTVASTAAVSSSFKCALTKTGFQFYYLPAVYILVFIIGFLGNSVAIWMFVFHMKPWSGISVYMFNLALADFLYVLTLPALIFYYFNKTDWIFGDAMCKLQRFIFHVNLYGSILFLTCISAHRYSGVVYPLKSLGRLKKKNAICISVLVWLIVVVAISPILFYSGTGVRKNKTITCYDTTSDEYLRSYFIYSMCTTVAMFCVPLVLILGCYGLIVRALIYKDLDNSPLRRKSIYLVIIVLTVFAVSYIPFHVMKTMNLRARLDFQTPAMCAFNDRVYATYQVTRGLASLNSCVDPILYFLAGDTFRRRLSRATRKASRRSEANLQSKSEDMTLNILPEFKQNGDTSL
# Protocol Summary: [3H]2MeSADP radioligand binding at the P2Y1 receptor (U2OS membranes)
# Set-up: expressed in transfected cells; host or cells: U2OS cells (membrane preparation)
# Condition: presence of 0.01% Tween-20; average; read-out: IC50, inhibition of [3H]2MeSADP binding to human P2Y1 receptor

{"Cpd Smiles": "O=C(/C=C/c1ccc(O)c2oc(-c3ccc(O)c(O)c3)cc12)O[C@H](Cc1ccc(O)c(O)c1)C(=O)O", "IC50": "23.7 µM"}

----------
# Test Target: P2Y12 receptor (Homo sapiens, UniProt Q9H244)
# Sequence (Q9H244 whole entry): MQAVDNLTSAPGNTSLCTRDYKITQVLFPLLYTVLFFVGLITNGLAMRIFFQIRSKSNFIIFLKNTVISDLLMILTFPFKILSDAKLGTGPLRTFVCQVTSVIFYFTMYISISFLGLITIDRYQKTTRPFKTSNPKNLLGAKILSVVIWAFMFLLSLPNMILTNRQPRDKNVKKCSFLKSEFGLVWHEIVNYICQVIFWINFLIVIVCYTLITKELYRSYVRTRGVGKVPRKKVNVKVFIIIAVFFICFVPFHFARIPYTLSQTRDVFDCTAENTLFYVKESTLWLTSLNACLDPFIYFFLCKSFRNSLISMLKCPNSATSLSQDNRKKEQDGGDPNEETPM
# Protocol Summary: [3H]2MeSADP radioligand binding at the P2Y12 receptor (U2OS membranes)
# Parameters: expressed in transfected cells; host or cells: U2OS cells (membrane preparation)
# Condition: 100 µM compound
Quantity Measured: inhibition of [3H]2MeSADP binding at the human P2Y12 receptor

{"Cpd Smiles": "O=C(O)Cc1c(/C=C/C(=O)O[C@H](Cc2ccc(O)c(O)c2)C(=O)O)ccc(O)c1O", "Test Target": "P2Y12 receptor (Homo sapiens, UniProt Q9H244)", "Test Result": "33.5 ± 8.6%"}

----------
# Test Target: P2Y1 receptor (Homo sapiens, UniProt P47900)
# Protocol Summary: [3H]2MeSADP radioligand binding at the P2Y1 receptor (U2OS membranes)
# Design: expressed in transfected cells; host or cells: U2OS cells (membrane preparation)
# Condition: absence of Tween-20; average; read-out: IC50, inhibition of [3H]2MeSADP binding to human P2Y1 receptor
pIC50: −log10 of the molar value.

{"Molecule": "O=C(/C=C/c1ccc(O)c2oc(-c3ccc(O)c(O)c3)cc12)O[C@H](Cc1ccc(O)c(O)c1)C(=O)O [SAC, salvianolic acid C]", "pIC50": 4.53}
